Entry source: patent EP4775580A1

# Assay name: Pharmacokinetics in mice after single IV and PO administration (LC-MS/MS)
# Assay type: in vivo, male ICR mice
# Measurement setup: mouse, in vivo; ICR mice, IV 3 mg/kg; read-out: IV Vss
Measure: Vd
Please format your answer as a value with the unit trailing.

Item CCN(C(=O)c1cc(F)ccc1N1CCN([C@@H]2CCN([C@H](CCCN(C)CCOC)C(C)C)C2)c2ncncc21)C(C)C [Example 3] : provide Vd 65.1 L/kg

---

# Assay name: Pharmacokinetics in mice after single IV and PO administration (LC-MS/MS)
# Assay type: in vivo, male ICR mice
# Measurement setup: mouse, in vivo; ICR mice, IV 3 mg/kg; read-out: IV AUC(0-t)
Measure: AUC(0-t) (ng·h/mL)
Please reply with the bare figure in ng·h/mL and do not write the unit itself.

In one line, give reported AUC(0-t) of the entry CCN(C(=O)c1cc(F)ccc1N1CCN([C@@H]2CCN([C@H](CCCN(C)CCOC)C(C)C)C2)c2ncncc21)C(C)C [Example 3] . 429

---

# Assay name: Pharmacokinetics in mice after single IV and PO administration (LC-MS/MS)
# Format: in vivo, male ICR mice
# Measurement setup: mouse, in vivo; ICR mice, IV 3 mg/kg; read-out: IV t1/2 (converted)
Measure: half-life (h)
Form entry: value (h) — number only.

Quick one: give measured half-life for CCN(C(=O)c1cc(F)ccc1N1CCN([C@@H]2CCN([C@H](CCCN(C)CCOC)C(C)C)C2)c2ncncc21)C(C)C [Example 3] 10.9

---

# Assay name: Pharmacokinetics in rats after single IV and PO administration (LC-MS/MS)
# Assay type: in vivo, male SD rats
# Measurement setup: rat, in vivo; SD rats, IV 3 mg/kg; read-out: IV Vss
# From the text: • 1. Objective: This study aimed to characterize the pharmacokinetic properties of selected compounds from the examples of the present invention in SD rats following single intravenous (IV) injection and oral (PO) administration using LC-MS/MS methodology. • 2. […]
Measure: Vd (L/kg)
Please respond with the number in L/kg and leave the unit unwritten.

Annotate the molecule CCN(C(=O)c1cc(F)ccc1N1CCN([C@@H]2CCN([C@H](CCCN(C)CCOC)C(C)C)C2)c2ncncc21)C(C)C [Example 3] with its measured Vd. 203

---

Recorded measurements of IC50, one per entry
# System name: Menin-M327V (Homo sapiens, UniProt O00255, M322V)
# Sequence (O00255 1-615 isoform O00255-1 M327V): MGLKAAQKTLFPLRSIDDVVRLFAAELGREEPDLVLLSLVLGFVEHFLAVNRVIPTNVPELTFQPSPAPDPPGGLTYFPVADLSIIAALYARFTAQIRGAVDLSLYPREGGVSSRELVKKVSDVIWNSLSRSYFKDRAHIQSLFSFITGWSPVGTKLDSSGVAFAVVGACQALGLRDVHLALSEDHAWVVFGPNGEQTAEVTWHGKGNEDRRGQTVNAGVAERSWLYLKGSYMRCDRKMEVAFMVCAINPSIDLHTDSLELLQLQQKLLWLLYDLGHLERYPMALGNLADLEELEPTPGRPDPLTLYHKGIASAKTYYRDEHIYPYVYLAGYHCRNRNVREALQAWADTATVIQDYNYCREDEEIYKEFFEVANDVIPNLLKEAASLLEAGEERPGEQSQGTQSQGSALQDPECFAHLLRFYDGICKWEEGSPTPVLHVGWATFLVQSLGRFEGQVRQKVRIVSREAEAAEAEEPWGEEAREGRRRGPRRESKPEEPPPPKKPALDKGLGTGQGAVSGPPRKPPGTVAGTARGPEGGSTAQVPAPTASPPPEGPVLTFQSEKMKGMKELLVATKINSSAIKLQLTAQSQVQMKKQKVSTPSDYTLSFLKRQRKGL
# Assay name: Fluorescence polarization assay of Menin binding to MLL peptide, M327V mutant
# Measurement setup: FP, 8 nM Menin, 4 nM MLL peptide
Answer with a number only, understood to be in nM.

Give the reported value of IC50 for this record: CCN(C(=O)c1cc(F)ccc1N1CCN([C@@H]2CCN([C@H](CCCN(C)CCOC)C(C)C)C2)c2ncncc21)C(C)C 49.3

In one line, give reported IC50 of the entry CCN(C(=O)c1cc(F)ccc1Oc1cncnc1N1CC2(CCN(C[C@H]3CC[C@H](NS(=O)(=O)CC)CC3)CC2)C1)C(C)C . 1300

---

# Assay name: Pharmacokinetics in rats after single IV and PO administration (LC-MS/MS)
# Type: in vivo, male SD rats
# Measurement setup: male, rat, plasma; SD rats, IV; comparative compounds, dose 1 mg/kg according to Table 3; read-out: IV t1/2 (converted)
Measure: half-life (h)
Kindly provide the numeric value in h only, without the unit symbol.

>>> df
                                   compound  observed_result
0  CCN(C(=O)c1cc(F)ccc1N1CCN(C2CCN(Cc3ccc4[nH]c(C#N)cc4c3C)CC2)c2ncncc21)C(C)C [Comparative Comp. 7]             1.55
1  CCN(C(=O)c1cc(F)ccc1N1CCN(C2CCN(Cc3ccc4c(cc(C#N)n4CC4CNC4)c3C)CC2)c2ncncc21)C(C)C [Comparative Comp. 9]             5.98
2  CCN(C(=O)c1cc(F)ccc1N1CCN(C2CCN(Cc3ccc4c(cc(C#N)n4C[C@@H]4CCNC4)c3C)CC2)c2ncncc21)C(C)C [Comparative Comp. 8]             2.06

// Input: CCN(C(=O)c1cc(F)ccc1N1CCN(C2CCN(Cc3ccc4c(cc(C#N)n4CC4COC4)c3C)CC2)c2ncncc21)C(C)C [Comparative Comp. 10] . Output its half-life only. 0.82

---

# Assay name: Pharmacokinetics in rats after single IV and PO administration (LC-MS/MS)
# Assay type: in vivo, male SD rats
# Measurement setup: male, rat, plasma; SD rats, PO; comparative compounds, dose 10 mg/kg in 0.5% MC according to Table 3; read-out: PO Cmax
Entries and their measured Cmax follow.
// units = ng/mL; emit number, no label

// known answers, use as guide
In [3]: df
Out[3]:
                               smiles_entry  measure  observed_result
0  CCN(C(=O)c1cc(F)ccc1N1CCN(C2CCN(Cc3ccc4c(cc(C#N)n4CC4CNC4)c3C)CC2)c2ncncc21)C(C)C     Cmax              101
1  CCN(C(=O)c1cc(F)ccc1N1CCN(C2CCN(Cc3ccc4c(cc(C#N)n4CC4COC4)c3C)CC2)c2ncncc21)C(C)C     Cmax             33.3
2  CCN(C(=O)c1cc(F)ccc1N1CCN(C2CCN(Cc3ccc4c(cc(C#N)n4C[C@@H]4CCNC4)c3C)CC2)c2ncncc21)C(C)C     Cmax             41.9

Supply reported Cmax belonging to this compound: CCN(C(=O)c1cc(F)ccc1N1CCN(C2CCN(Cc3ccc4[nH]c(C#N)cc4c3C)CC2)c2ncncc21)C(C)C 27

---

# System: MV-4-11 cells
# Assay name: Antiproliferative activity against MV-4-11 cells (CTG method, 72 h)
# Format: cell-based
# Measurement setup: Homo sapiens, MV4-11, 72 hours incubation, CellTiter-Glo
Measure: pIC50
Scale for pIC50: -log10 of concentration given in mol/L; no unit attached.

Compound	Measure	Observed result
CCN(C(=O)c1cc(F)ccc1N1CCN(C2CCN(Cc3ccc4[nH]c(C#N)cc4c3C)C2)c2ncncc21)C(C)C (stereo not drawn) [Comparative Compound 2]	pIC50	6.10
CCN(C(=O)c1cc(F)ccc1N1CCN([C@@H]2CCN([C@H](CCCN(C)CCOC)C(C)C)C2)c2ncncc21)C(C)C [Example 3]	pIC50	7.64

Now examine the next entry.
// Input: CCN(C(=O)c1cc(F)ccc1N1CCN(C2CCN(C[C@H]3CC[C@H](NS(C)(=O)=O)CC3)C2)c2ncncc21)C(C)C (stereo partly drawn) [Comparative Compound 1] . Output its pIC50 only. 6.53

---

Entries and their clearance
# Assay name: Pharmacokinetics in rats after single IV and PO administration (LC-MS/MS)
# Format: in vivo, male SD rats
# Measurement setup: male, rat, plasma; SD rats, IV; comparative compounds, dose 1 mg/kg according to Table 3; read-out: IV CL
# Description: • 1. Objective: This study aimed to characterize the pharmacokinetic properties of selected compounds from the examples of the present invention in SD rats following single intravenous (IV) injection and oral (PO) administration using LC-MS/MS methodology. • 2. […]
Mention the unit after the number when you answer.

In [3]: df
Out[3]:
                                   compound  observed_result
0  CCN(C(=O)c1cc(F)ccc1N1CCN(C2CCN(Cc3ccc4c(cc(C#N)n4CC4COC4)c3C)CC2)c2ncncc21)C(C)C [Comparative Comp. 10]    947 mL/min/kg
1  CCN(C(=O)c1cc(F)ccc1N1CCN(C2CCN(Cc3ccc4[nH]c(C#N)cc4c3C)CC2)c2ncncc21)C(C)C [Comparative Comp. 7]   62.1 mL/min/kg

For CCN(C(=O)c1cc(F)ccc1N1CCN(C2CCN(Cc3ccc4c(cc(C#N)n4C[C@@H]4CCNC4)c3C)CC2)c2ncncc21)C(C)C [Comparative Comp. 8] , write its clearance. 185 mL/min/kg

Consider the compound CCN(C(=O)c1cc(F)ccc1N1CCN(C2CCN(Cc3ccc4c(cc(C#N)n4CC4CNC4)c3C)CC2)c2ncncc21)C(C)C [Comparative Comp. 9] . State its measured clearance. 92.4 mL/min/kg

---

# Assay name: Pharmacokinetics in rats after single IV and PO administration (LC-MS/MS)
# Format: in vivo, male SD rats
# Measurement setup: SD rats; comparative compounds, PO 10 mg/kg vs IV 1 mg/kg according to Table 3
Measure: PO F (%)
Give the value in % but do not write % after it.

>>> df
                                   compound  measure  unit_info  observed_result
0  CCN(C(=O)c1cc(F)ccc1N1CCN(C2CCN(Cc3ccc4c(cc(C#N)n4CC4CNC4)c3C)CC2)c2ncncc21)C(C)C [Comparative Comp. 9]     PO F          %            13.50

Tell us which PO F value is on record for CCN(C(=O)c1cc(F)ccc1N1CCN(C2CCN(Cc3ccc4[nH]c(C#N)cc4c3C)CC2)c2ncncc21)C(C)C [Comparative Comp. 7] 3.7

Name the recorded PO F of the item CCN(C(=O)c1cc(F)ccc1N1CCN(C2CCN(Cc3ccc4c(cc(C#N)n4CC4COC4)c3C)CC2)c2ncncc21)C(C)C [Comparative Comp. 10] in your answer. 49.68

Indicate the recorded PO F value for this compound: CCN(C(=O)c1cc(F)ccc1N1CCN(C2CCN(Cc3ccc4c(cc(C#N)n4C[C@@H]4CCNC4)c3C)CC2)c2ncncc21)C(C)C [Comparative Comp. 8] 13.85
